target: Alpha-1A adrenergic receptor (Homo sapiens, UniProt P35348); format: functional, cell-based; note: assay procedure not described here
Sequence (P35348 whole entry): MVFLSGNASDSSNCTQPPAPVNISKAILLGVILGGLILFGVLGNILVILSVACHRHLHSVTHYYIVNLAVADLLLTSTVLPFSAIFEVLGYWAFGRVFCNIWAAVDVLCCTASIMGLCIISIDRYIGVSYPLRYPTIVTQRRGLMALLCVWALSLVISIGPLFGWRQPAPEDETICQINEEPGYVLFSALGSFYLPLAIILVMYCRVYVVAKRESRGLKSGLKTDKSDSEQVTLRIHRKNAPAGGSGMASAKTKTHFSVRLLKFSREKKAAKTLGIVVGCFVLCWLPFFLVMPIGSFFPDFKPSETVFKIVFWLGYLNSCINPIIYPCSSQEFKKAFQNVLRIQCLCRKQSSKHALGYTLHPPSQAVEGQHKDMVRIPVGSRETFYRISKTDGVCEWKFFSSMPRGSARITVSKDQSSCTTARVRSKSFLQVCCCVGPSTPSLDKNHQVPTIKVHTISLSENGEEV
Endpoint name: AC50

Let me check: CC(=O)O[C@H]1CC[C@@]2(C)C(=CC[C@@H]3[C@@H]2CC[C@]2(C)C(c4cccnc4)=CC[C@@H]32)C1 [ABIRATERONE ACETATE] , system Alpha-1A adrenergic receptor (Homo sapiens, UniProt P35348), measured AC50 is > 30 µM

Let me check: NCC(CC(=O)O)c1ccc(Cl)cc1 (centres undefined) , system Alpha-1A adrenergic receptor (Homo sapiens, UniProt P35348), measured AC50 is > 30 µM

Let me check: COc1ccc(CCN(C)CCCC(C#N)(c2cc(OC)c(OC)c(OC)c2)C(C)C)cc1OC (centres undefined) , system Alpha-1A adrenergic receptor (Homo sapiens, UniProt P35348), measured AC50 is > 30 µM

Let me check: Cc1cc(C)c(NC(=O)CN(CC(=O)O)CC(=O)O)c(C)c1Br , system Alpha-1A adrenergic receptor (Homo sapiens, UniProt P35348), measured AC50 is > 30 µM

Let me check: O=C(Cc1ccc(-c2ccccc2)cc1)Nc1ccccn1 [DIFENPIRAMIDE] , system Alpha-1A adrenergic receptor (Homo sapiens, UniProt P35348), measured AC50 is > 30 µM

Let me check: CC(CC(c1ccccc1)c1ccccc1)NC(C)(C)C (centres undefined) , system Alpha-1A adrenergic receptor (Homo sapiens, UniProt P35348), measured AC50 is 12 µM

Let me check: C/C(O)=C(\C#N)C(=O)Nc1ccc(C(F)(F)F)cc1 [TERIFLUNOMIDE] , system Alpha-1A adrenergic receptor (Homo sapiens, UniProt P35348), measured AC50 is 21 µM

Let me check: COc1ccc2c3c1O[C@H]1[C@@H](O)C=C[C@H]4[C@@H](C2)N(C)CC[C@@]341 , system Alpha-1A adrenergic receptor (Homo sapiens, UniProt P35348), measured AC50 is > 30 µM

Let me check: Cn1nnc2c(C(N)=O)ncn2c1=O [TEMOZOLOMIDE] , system Alpha-1A adrenergic receptor (Homo sapiens, UniProt P35348), measured AC50 is > 30 µM
